system: Saccharomyces cerevisiae; test: protein stability index of tFT-peptide fusion (C-terminal peptide) (PSI (0-1 scale)); higher = more stable (slower turnover); settings: genetic background: wild type; temperature: 30 C
observable: protein stability index

> print(dat)
    primary.sequence  value.measured
 1      SAPSAAPPRSHP           0.708
 2      NCVDRFKGQKRM           0.505
 3      VQCRIREELWGG           0.692
 4      IISAIAPFIRWD            0.69
 5      RIRLYWVLRRLG           0.183
 6      GGGARCGLGGRM             0.7
 7      SPPPPPLPPPHP           0.656
 8      TRSLPSSSSHSL           0.727
 9      GTLPLGVRGGLK           0.657
10      PSPRSPPPSPPS           0.747

* * *

system: Saccharomyces cerevisiae; assay: protein stability index of tFT-peptide fusion (C-terminal peptide) (PSI (0-1 scale)); higher = more stable (slower turnover); settings: genetic background: wild type; temperature: 30 C;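 also: PSI is a weighted mean of sequencing reads over stability bins, variants kept only with over 10 reads, mCherry proximal and sfGFP distal, peptide attached via GGGS linker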
Use protein stability index to assign classes; range list: low interval: < 0.6; middle interval: ≥ 0.6 and < 0.7; high interval: ≥ 0.7

> print(dat)
    primary.sequence   assigned.label
 1      EEKRPWRRELLS     low interval
 2      PLPPPAIPRLCA  middle interval
 3      VGVVVAIGLVRM     low interval
 4      WGGRSWGLRRGC  middle interval
 5      VFSFGLLFQVCR     low interval
 6      GGGAGGRQGCGG    high interval
 7      HVKLLSSNGPLV  middle interval
 8      PPGLRSYACCRN    high interval
 9      VGVSCVVCVCGV     low interval
10      PLPIPPRRPNSP  middle interval
11      CSLCILSWTFPS  middle interval
12      EKCHVTVVNEMR  middle interval
13      FSPPTLSLPGPI    high interval
14      FYSLFLPRPFLS     low interval
15      GAGVLTLDNRRV  middle interval
16      CERIGIRHLIKW  middle interval
17      SIVSQGISDLGR  middle interval
18      SSIVGRLLSTNT  middle interval
19      LFLIFFSFLFLC     low interval
20      KSLRLFSVLSFV  middle interval
21      AWQGRVEGGDGA  middle interval
22      KACVKRVYCILE     low interval
23      FKWVSRIRLLDA     low interval
24      PRPPPPLPPFPP  middle interval
25      GLNVLVWALLSQ     low interval
26      VLRLLARRHAMV     low interval
27      AMRTIFFPAFVS     low interval
28      FHFLCLVGSFRG     low interval
29      RPPPHYPHHTAS  middle interval
30      IPRPFRSLPFLP    high interval
31      CEERVKSRLKQN     low interval
32      LSYCVGFFSLVG  middle interval
33      KKIKKYTRKLKI     low interval
34      WVCCFVWGCLIR     low interval
35      HRPTRLIKKNLA    high interval
36      CYKYTYVKNNMI     low interval
37      MQSRWAQVEGKE  middle interval
38      ISPRSRSCAYGV    high interval
39      DIGGLGYCDCVK    high interval
40      PWPFKQHEHRRA    high interval
41      KYKLYGIMIIEG     low interval
42      SRRGFTHDGLKD  middle interval
43      SSTEYYDIRKIR  middle interval
44      CQVVALYCFSLL  middle interval
45      PLTNPPRSRKSS    high interval
46      RRSHGLAGPKKG  middle interval
47      ATLGRCYSSNGL  middle interval
48      CLGGPAAWPLFS  middle interval
49      ASATCQKGSIPR  middle interval
50      PVFVLFFFSSLV     low interval
51      SRTLYERTRFVL  middle interval
52      SLPDSLPRPPPS  middle interval
53      FPSPLLPYPLLP    high interval
54      LIPRCLIPVTRY  middle interval
55      NSIHRTRPKKII  middle interval
56      VVWCSWGFLFSA  middle interval
57      LGGRTWTLVRSG  middle interval
58      MGLVVGILVGHR  middle interval
59      YLVPPLQPHSPA    high interval
